Target: T1, human receptor tyrosine kinase AXL transcript variant 1 (human, UniProt P30530 26-894)
T1 construct: Overexpressed on RatI-AXL cl.2 and NIH3T3-AXL cl.7 fibroblasts (pLXSN-hAXL); endogenous on human cancer cell lines and HUVEC in the functional assays; also called hAXL; human AXL
T1 sequence: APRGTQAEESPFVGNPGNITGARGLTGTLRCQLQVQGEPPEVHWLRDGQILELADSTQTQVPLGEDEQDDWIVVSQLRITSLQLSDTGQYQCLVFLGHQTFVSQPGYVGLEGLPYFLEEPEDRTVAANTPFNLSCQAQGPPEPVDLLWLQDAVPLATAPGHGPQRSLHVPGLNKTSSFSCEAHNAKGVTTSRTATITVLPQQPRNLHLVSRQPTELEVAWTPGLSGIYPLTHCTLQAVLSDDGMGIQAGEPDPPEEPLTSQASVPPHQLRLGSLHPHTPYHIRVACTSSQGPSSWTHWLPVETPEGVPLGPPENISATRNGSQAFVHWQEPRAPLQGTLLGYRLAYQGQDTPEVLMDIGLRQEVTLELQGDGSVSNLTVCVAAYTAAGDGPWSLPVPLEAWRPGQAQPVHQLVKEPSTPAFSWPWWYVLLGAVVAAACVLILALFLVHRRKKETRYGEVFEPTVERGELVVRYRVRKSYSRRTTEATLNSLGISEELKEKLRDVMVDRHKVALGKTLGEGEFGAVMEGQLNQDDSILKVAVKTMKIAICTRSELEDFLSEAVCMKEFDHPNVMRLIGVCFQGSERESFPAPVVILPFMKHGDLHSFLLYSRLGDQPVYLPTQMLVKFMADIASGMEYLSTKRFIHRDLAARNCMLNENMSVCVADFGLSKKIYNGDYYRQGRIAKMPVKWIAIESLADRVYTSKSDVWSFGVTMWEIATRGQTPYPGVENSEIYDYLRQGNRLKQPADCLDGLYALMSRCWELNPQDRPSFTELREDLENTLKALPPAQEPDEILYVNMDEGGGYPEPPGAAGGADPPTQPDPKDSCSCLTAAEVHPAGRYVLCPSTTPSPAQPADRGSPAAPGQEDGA
Assay: FACS Scatchard (apparent KD) on human AXL overexpressing NIH3T3 cells
Measurement Type: Kd (pM)
# number only, unit pM dropped from output

Incoming: Value lookup for Kd; key = III 11D5 (antibody, rat IgG2a, V domains shown, rat hybridoma antibody, antagonistic) VH: EVQLQESGPGLVKPSQSLSLTCSVTGYSITSNYWGWIRKFPGNKMEWIGHITNSGNTTYNPSLKSRISISRDTSRNQFFLQLNSVTTEDTATYYCAKGAFDYWGQGVMVTVSS VL: DIQMTQSPSSMSTSLGDRVTITCRASQDIGNYLSWFQQKVGKSPRRMIYGAIKLAVGVPSRFSGSRSGSDYSLTISSLESEDMAIYYCLQYIQFPLTFGSGTKLELK
Outgoing: 810
